- PROTOCOL DESCRIPTION: Aqueous solubility
- Assay type: physicochemical
- EXPERIMENTAL CONTEXT: aqueous KCl/HEPES buffer, 100 mM KCl, 10 mM K · HEPES, pH 7.4
MEASURE NAME: solubility (µM)
Number only, in µM; omit the unit.

-- ask Fill in: solubility of CCc1c(OC)cccc1C(=O)NN(C(=O)c1cc(C)cc(C)c1)C(C)(C)C [NSE-1] is ___
-- reply 47
